Hey, just so you know, these numbers are from ChEMBL document CHEMBL1154645.

# IC50 annotations
# test.method.notes: Inhibition of Schistosoma mansoni asparaginyl endopeptidase
# experimental.setup: read-out: IC50
The answer is to be given in nM; state only the numeric part.

Use the examples below as a reference point.
CC(C)[C@H](NC(=O)[C@@H](C)NC(=O)OCc1ccccc1)C(=O)NN(CC(N)=O)C(=O)/C=C/C(=O)NCc1cccc2ccccc12 : 1050
C[C@H](NC(=O)[C@@H](C)NC(=O)N1CCNCC1)C(=O)NN(CC(N)=O)C(=O)/C=C/C(=O)N(C)Cc1cccc2ccccc12 : 40
C[C@H](NC(=O)N1CCN(C(=O)OCc2ccccc2)CC1)C(=O)NN(CC(N)=O)C(=O)/C=C/C(=O)N1CCc2ccccc2C1 : 750

API: the following record is the query input.
Memo: `C[C@H](NC(=O)[C@@H](C)NC(=O)N1CCNCC1)C(=O)NN(CC(N)=O)C(=O)/C=C/C(=O)N(Cc1ccccc1)Cc1ccccc1` , reported IC50: 90

###

# test.method.notes: Inhibition of Schistosoma mansoni asparaginyl endopeptidase
# experimental.setup: read-out: IC50
measured.parameter: IC50 (nM)
The answer is to be given in nM; state only the numeric part.

Use the examples below as a reference point.
C[C@H](NC(=O)[C@H](C)NC(=O)N1CCCCC1)C(=O)NN(CC(N)=O)C(=O)/C=C/C(=O)N(Cc1cccc2ccccc12)Cc1cccc2ccccc12 (relative stereo) : 57
CC(NC(=O)N1CCCCC1)C(=O)N[C@@H](C)C(=O)NN(CC(N)=O)C(=O)[C@H]1O[C@@H]1C(=O)NCc1cccc2ccccc12 (single isomer, unassigned) : 160
CC(C)[C@H](NC(=O)[C@@H](C)NC(=O)OCc1ccccc1)C(=O)NN(CC(N)=O)C(=O)/C=C/C(=O)N1CCCc2ccccc21 : 138
C[C@H](NC(=O)[C@@H](C)NC(=O)N1CCN(C(=O)OC(C)(C)C)CC1)C(=O)NN(CC(N)=O)C(=O)/C=C/C(=O)N(C)Cc1cccc2ccccc12 : 58
C[C@H](NC(=O)[C@@H](C)NC(=O)N1CCN(C(=O)OCc2ccccc2)CC1)C(=O)NN(CC(N)=O)C(=O)/C=C/C(=O)N(C)Cc1cccc2ccccc12 : 70

API: the following record is the query input.
Memo: `C[C@H](NC(=O)[C@@H](C)NC(=O)N1CCCCC1)C(=O)NN(CC(N)=O)C(=O)/C=C/C(=O)NCCc1ccccc1` , reported IC50: 750

###

# test.method.notes: Inhibition of Schistosoma mansoni asparaginyl endopeptidase
# experimental.setup: read-out: IC50
measured.parameter: pIC50
Keep in mind that pIC50 stands for -log10 of concentration in molar terms.

Use the examples below as a reference point.
C[C@H](NC(=O)N1CCN(C(=O)OCc2ccccc2)CC1)C(=O)NN(CC(N)=O)C(=O)/C=C/C(=O)N1CCCc2ccccc21 : 6.12
C[C@H](NC(=O)[C@@H](C)NC(=O)N1CCNCC1)C(=O)NN(CC(N)=O)C(=O)/C=C/C(=O)OCc1ccccc1 : 6.60

API: the following record is the query input.
Memo: `C[C@H](NC(=O)[C@@H](C)NC(=O)N1CCOCC1)C(=O)NN(CC(N)=O)C(=O)/C=C/C(=O)N1CCc2ccccc2C1` , reported pIC50: 6.99

###

# pIC50 annotations
# test.method.notes: Inhibition of Schistosoma mansoni asparaginyl endopeptidase
# experimental.setup: read-out: IC50
Keep in mind that pIC50 stands for -log10 of concentration in molar terms.

Use the examples below as a reference point.
C[C@H](NC(=O)[C@H](C)NC(=O)N1CCCCC1)C(=O)NN(CC(N)=O)C(=O)/C=C/C(=O)N(Cc1ccccc1)Cc1ccccc1 : 7.10
CC(NC(=O)N1CCOCC1)C(=O)N[C@@H](C)C(=O)NN(CC(N)=O)C(=O)[C@H]1O[C@@H]1C(=O)N(Cc1ccccc1)Cc1ccccc1 (single isomer, unassigned) : 7.05
CCOC(=O)/C=C/C(=O)N(CC(N)=O)NC(=O)[C@@H](NC(=O)[C@@H](C)NC(=O)OCc1ccccc1)[C@@H](C)CC : 6.55
CCOC(=O)/C=C/C(=O)N(CC(N)=O)NC(=O)[C@@H](NC(=O)[C@@H](C)NC(=O)OCc1ccccc1)C(C)C : 7.00
CCOC(=O)/C=C/C(=O)N(CC(N)=O)NC(=O)[C@H](C)NC(=O)[C@@H](C)NC(=O)N1CCNCC1 : 6.52

API: the following record is the query input.
Memo: `C[C@H](NC(=O)[C@@H](C)NC(=O)N1CCN(C(=O)OC(C)(C)C)CC1)C(=O)NN(CC(N)=O)C(=O)/C=C/C(=O)N(Cc1ccccc1)Cc1ccccc1` , reported pIC50: 7.35

###

# assay.system: UniProt:Q6PRC7
# Sequence (Q6PRC7 whole entry): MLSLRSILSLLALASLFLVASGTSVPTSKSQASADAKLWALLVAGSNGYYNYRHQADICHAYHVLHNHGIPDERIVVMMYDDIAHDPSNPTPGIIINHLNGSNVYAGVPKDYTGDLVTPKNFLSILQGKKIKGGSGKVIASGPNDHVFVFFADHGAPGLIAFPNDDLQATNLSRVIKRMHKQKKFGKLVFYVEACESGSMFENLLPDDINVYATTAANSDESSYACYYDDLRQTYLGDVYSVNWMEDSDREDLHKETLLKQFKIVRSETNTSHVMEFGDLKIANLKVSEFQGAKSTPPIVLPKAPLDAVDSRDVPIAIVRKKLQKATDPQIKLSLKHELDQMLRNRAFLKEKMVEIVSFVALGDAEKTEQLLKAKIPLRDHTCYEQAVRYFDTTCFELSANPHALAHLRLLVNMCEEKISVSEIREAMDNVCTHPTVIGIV
# test.method.notes: Inhibition of Ixodes ricinus asparaginyl endopeptidases
# experimental.setup: read-out: IC50
measured.parameter: IC50 (nM)
The answer is to be given in nM; state only the numeric part.

C[C@H](NC(=O)N1CCOCC1)C(=O)NN(CC(N)=O)C(=O)/C=C/C(=O)N1CCc2ccccc2C1 : 600
C[C@H](NC(=O)[C@@H](C)NC(=O)N1CCNCC1)C(=O)NN(CC(N)=O)C(=O)/C=C/C(=O)N(C)Cc1cccc2ccccc12 : 3.8
C[C@H](NC(=O)[C@@H](C)NC(=O)N1CCOCC1)C(=O)NN(CC(N)=O)C(=O)/C=C/C(=O)N(Cc1cccc2ccccc12)Cc1cccc2ccccc12 : 3.3

Memo: `C[C@H](NC(=O)N1CCN(C(=O)OCc2ccccc2)CC1)C(=O)NN(CC(N)=O)C(=O)/C=C/C(=O)N1CCc2ccccc2C1` , reported IC50: 800

Memo: `C[C@H](NC(=O)[C@@H](C)NC(=O)N1CCNCC1)C(=O)NN(CC(N)=O)C(=O)/C=C/C(=O)OCc1ccccc1` , reported IC50: 13

Memo: `C[C@H](NC(=O)[C@@H](C)NC(=O)N1CCN(C(=O)OC(C)(C)C)CC1)C(=O)NN(CC(N)=O)C(=O)/C=C/C(=O)OCc1ccccc1` , reported IC50: 7.5
